- experimental-system: human ether-à-go-go-related gene (hERG) potassium channel (human);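 note: peak tail current of the secondary pulse compared with the same well before compound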
- Sequence (Q12809 whole entry, looked up): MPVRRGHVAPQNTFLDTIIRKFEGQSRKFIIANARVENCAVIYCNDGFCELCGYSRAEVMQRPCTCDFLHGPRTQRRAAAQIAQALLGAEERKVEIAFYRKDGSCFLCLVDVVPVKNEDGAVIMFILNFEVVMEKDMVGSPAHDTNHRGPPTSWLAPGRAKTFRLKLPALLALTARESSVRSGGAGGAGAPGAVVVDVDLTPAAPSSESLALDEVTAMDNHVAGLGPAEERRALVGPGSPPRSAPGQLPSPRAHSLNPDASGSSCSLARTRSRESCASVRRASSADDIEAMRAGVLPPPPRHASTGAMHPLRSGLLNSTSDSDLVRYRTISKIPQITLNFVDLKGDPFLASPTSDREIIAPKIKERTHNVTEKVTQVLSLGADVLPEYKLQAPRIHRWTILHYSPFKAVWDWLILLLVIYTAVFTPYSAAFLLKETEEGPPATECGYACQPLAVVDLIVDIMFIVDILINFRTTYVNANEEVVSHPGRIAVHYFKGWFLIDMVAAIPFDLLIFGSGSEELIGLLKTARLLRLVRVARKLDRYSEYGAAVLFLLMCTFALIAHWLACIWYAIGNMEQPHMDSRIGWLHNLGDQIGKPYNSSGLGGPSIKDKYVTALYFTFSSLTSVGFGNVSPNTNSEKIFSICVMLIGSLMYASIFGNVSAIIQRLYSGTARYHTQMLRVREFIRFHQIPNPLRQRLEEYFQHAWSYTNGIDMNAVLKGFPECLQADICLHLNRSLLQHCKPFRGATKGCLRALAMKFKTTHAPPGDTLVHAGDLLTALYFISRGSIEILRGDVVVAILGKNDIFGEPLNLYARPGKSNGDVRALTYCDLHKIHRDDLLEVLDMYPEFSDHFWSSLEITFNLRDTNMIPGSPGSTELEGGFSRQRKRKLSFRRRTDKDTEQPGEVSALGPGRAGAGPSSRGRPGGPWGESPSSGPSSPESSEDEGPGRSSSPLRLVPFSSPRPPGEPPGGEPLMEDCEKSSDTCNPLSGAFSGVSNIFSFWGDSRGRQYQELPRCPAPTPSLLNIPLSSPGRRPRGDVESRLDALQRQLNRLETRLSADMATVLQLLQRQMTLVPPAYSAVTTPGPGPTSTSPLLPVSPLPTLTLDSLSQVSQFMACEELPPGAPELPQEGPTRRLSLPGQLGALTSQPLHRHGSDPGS
- protocol-text: primary screen, population patch clamp on CHO cells stably expressing hERG; higher = less effect of the substance
Hit rate of the full screen: of about 310,000 compounds, about 14,000 (4.5%) showed an effect of 50% or more. Effects have a minus sign here. The sample holds strong results, similar compounds and a random draw of the others, so the mix is not that of the screen.
measured-attribute: hERG current change (%, negative = inhibition) at 10uM (%)

>  <test-smiles>
O=C(c1ccco1)N1CCN(Cc2ccc(Cl)cc2)CC1

>  <readout-number>
-14

$$$$
>  <test-smiles>
O=C(CN1CCN(C(=O)c2ccco2)CC1)NCc1ccc(Cl)cc1

>  <readout-number>
-64.4

$$$$
>  <test-smiles>
O=C(CN1CCN(C(=O)c2ccco2)CC1)Nc1ccc(F)cc1F

>  <readout-number>
-49.6

$$$$
>  <test-smiles>
Cc1cc(Cl)ccc1NC(=O)CN1CCN(C(=O)c2ccco2)CC1

>  <readout-number>
-73.6

$$$$
>  <test-smiles>
O=C(CN1CCN(C(=O)c2ccco2)CC1)Nc1cc(Cl)ccc1Cl

>  <readout-number>
-60.1

$$$$
